Values compiled from paper PMC6661812.

melting point overview

Solved cases below.
- smiles_input: "COc1ccc(O)c(/C=N/Nc2nc3nc(Oc4ccccc4)nn3c3ncccc23)c1"
  metric_name: "melting point"
  reported_result: "220 to 222 °C"
- smiles_input: "COc1ccc(Nc2nc3nc(Oc4ccccc4)nn3c3ncccc23)cc1"
  metric_name: "melting point"
  reported_result: "174 to 176 °C"
- smiles_input: "O=c1[nH]c2nc(Oc3ccccc3)nn2c2ncccc12"
  metric_name: "melting point"
  reported_result: "252 to 254 °C"
- smiles_input: "O=c1c2cccnc2n2nc(Oc3ccccc3)nc2n1Cc1ccc([N+](=O)[O-])cc1"
  metric_name: "melting point"
  reported_result: "150 to 152 °C"

Exercise: melting point for O=C(NNc1nc2nc(Oc3ccccc3)nn2c2ncccc12)c1ccncc1 ?
Solution: 163 to 165 °C

Exercise: What measured melting point goes with NNc1nc2nc(Oc3ccccc3)nn2c2ncccc12 ?
Solution: 241 to 243 °C

Exercise: Recorded melting point for CCn1c(=O)c2cccnc2n2nc(Oc3ccccc3)nc12 , please?
Solution: 173 to 175 °C

Exercise: Record request: melting point value, item O=c1c2cccnc2n2nc(Oc3ccccc3)nc2n1Cc1ccccc1
Solution: 195 to 197 °C

Exercise: Fill blank: measured melting point of the molecule S=c1[nH]c2nc(Oc3ccccc3)nn2c2ncccc12 is ____.
Solution: 270 to 272 °C

* * *

- study_target: α-glucosidase enzyme type 1 from Baker’s yeast (Saccharomyces cerevisiae)
- Sequence (P53341 whole entry): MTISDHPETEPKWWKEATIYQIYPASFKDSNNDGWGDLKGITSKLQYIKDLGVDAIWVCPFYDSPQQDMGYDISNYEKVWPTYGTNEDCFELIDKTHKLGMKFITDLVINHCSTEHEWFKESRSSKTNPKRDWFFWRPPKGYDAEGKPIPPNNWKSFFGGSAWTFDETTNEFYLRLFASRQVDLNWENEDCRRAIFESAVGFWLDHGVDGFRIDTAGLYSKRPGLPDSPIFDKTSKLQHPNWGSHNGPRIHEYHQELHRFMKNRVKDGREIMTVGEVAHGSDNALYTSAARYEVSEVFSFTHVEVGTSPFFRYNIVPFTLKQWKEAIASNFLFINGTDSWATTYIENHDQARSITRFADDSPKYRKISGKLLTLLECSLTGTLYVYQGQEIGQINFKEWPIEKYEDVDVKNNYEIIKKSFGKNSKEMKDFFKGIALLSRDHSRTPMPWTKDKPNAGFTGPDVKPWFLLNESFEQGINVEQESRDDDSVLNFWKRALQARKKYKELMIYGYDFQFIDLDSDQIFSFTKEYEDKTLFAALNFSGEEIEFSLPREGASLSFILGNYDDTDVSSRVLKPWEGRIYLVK
- assay_explanation: α-Glucosidase inhibitory assay (p-NPG substrate, absorbance at 405 nm)
- Format: biochemical
- assay_context: 100 µg/mL of each compound; test repeated three times; read-out: average percent inhibition of α-glucosidase
The entries below are paired with their reported inhibition at 100 µg/mL.

Solved entries (count: 5):
- compound: "Cc1ccc(Nc2nc3nc(Oc4ccccc4)nn3c3ncccc23)cc1 [Compound 6b]"
  inhibition at 100 µg/mL: "> 50%"
- compound: "c1ccc(Nc2nc3nc(Oc4ccccc4)nn3c3ncccc23)cc1 [Compound 6a]"
  inhibition at 100 µg/mL: "> 50%"
- compound: "S=c1[nH]c2nc(Oc3ccccc3)nn2c2ncccc12 [Compound 3]"
  inhibition at 100 µg/mL: "> 60%"
- compound: "Cc1ccccc1Cn1c(=O)c2cccnc2n2nc(Oc3ccccc3)nc12 [Compound 2d]"
  inhibition at 100 µg/mL: "> 50%"
- compound: "COc1ccccc1/C=N/Nc1nc2nc(Oc3ccccc3)nn2c2ncccc12 [Compound 6h]"
  inhibition at 100 µg/mL: "> 50%"

Exercise: Record CCn1c(=O)c2cccnc2n2nc(Oc3ccccc3)nc12 [Compound 2a] : what is its inhibition at 100 µg/mL with α-glucosidase enzyme type 1 from Baker’s yeast (Saccharomyces cerevisiae)?
Solution: > 50%

Exercise: Return inhibition at 100 µg/mL measured with α-glucosidase enzyme type 1 from Baker’s yeast (Saccharomyces cerevisiae) given this compound: CCOc1ccc(Nc2nc3nc(Oc4ccccc4)nn3c3ncccc23)cc1 [Compound 6d]
Solution: > 60%

Exercise: State its inhibition at 100 µg/mL on α-glucosidase enzyme type 1 from Baker’s yeast (Saccharomyces cerevisiae): COc1ccc(Nc2nc3nc(Oc4ccccc4)nn3c3ncccc23)cc1 [Compound 6c]
Solution: > 60%

* * *

- study_target: α-glucosidase enzyme type 1 from Baker’s yeast (Saccharomyces cerevisiae)
- assay_explanation: α-Glucosidase inhibitory assay (p-NPG substrate, absorbance at 405 nm)
- Assay type: biochemical
- assay_context: mean of three experiments ± SEM; more than five concentrations
metric_name: pIC50
Would you please state pIC50, meaning minus log10 of the concentration in mol/L, as a bare number?

- smiles_input: "Cc1ccc(Nc2nc3nc(Oc4ccccc4)nn3c3ncccc23)cc1"
  study_target: "α-glucosidase enzyme type 1 from Baker’s yeast (Saccharomyces cerevisiae)"
  pIC50: 3.68
- smiles_input: "c1ccc(Nc2nc3nc(Oc4ccccc4)nn3c3ncccc23)cc1"
  study_target: "α-glucosidase enzyme type 1 from Baker’s yeast (Saccharomyces cerevisiae)"
  pIC50: 3.81
- smiles_input: "CCn1c(=O)c2cccnc2n2nc(Oc3ccccc3)nc12"
  study_target: "α-glucosidase enzyme type 1 from Baker’s yeast (Saccharomyces cerevisiae)"
  pIC50: 3.52
- smiles_input: "S=c1[nH]c2nc(Oc3ccccc3)nn2c2ncccc12"
  study_target: "α-glucosidase enzyme type 1 from Baker’s yeast (Saccharomyces cerevisiae)"
  pIC50: 3.78
- smiles_input: "COc1ccc(Nc2nc3nc(Oc4ccccc4)nn3c3ncccc23)cc1"
  study_target: "α-glucosidase enzyme type 1 from Baker’s yeast (Saccharomyces cerevisiae)"
  pIC50: 3.75

Exercise: Param item = CCOc1ccc(Nc2nc3nc(Oc4ccccc4)nn3c3ncccc23)cc1 ; retrieve measured pIC50.
Solution: 3.86

Exercise: Given the entry COc1ccccc1/C=N/Nc1nc2nc(Oc3ccccc3)nn2c2ncccc12 , report its measured pIC50.
Solution: 3.98

Exercise: Any idea what its pIC50 is? The compound is Cc1ccccc1Cn1c(=O)c2cccnc2n2nc(Oc3ccccc3)nc12
Solution: 3.76
